Target: Autotaxin (Homo sapiens)
Test: Inhibition of C-terminal FLAG-tagged human recombinant autotaxin using synthetic substrate FS-3 at 10 uM measured every 2 mins by FRET assay relative to control
# inhibition annotations
attribute-measured: inhibition

>  <molecule>
COc1cc(/C=c2/sc3n(c2=O)NC2(c4ccccc4)N(C)C(=O)N(C)C2(c2ccccc2)N=3)ccc1O (centres undefined)

>  <experimental-system>
Autotaxin (Homo sapiens)

>  <attribute-measured>
inhibition

>  <result>
20%

$$$$
>  <molecule>
C#CCN1C(=O)S/C(=C/c2ccc(OCc3ccc4ccccc4c3)c(OCC)c2)C1=O

>  <experimental-system>
Autotaxin (Homo sapiens)

>  <attribute-measured>
inhibition

>  <result>
0%

$$$$
>  <molecule>
COc1ccc(C2CC(=O)NC(SCC(=O)Nc3ccc(I)cc3)=C2C#N)cc1 (centres undefined)

>  <experimental-system>
Autotaxin (Homo sapiens)

>  <attribute-measured>
inhibition

>  <result>
20%

$$$$
>  <molecule>
O=C(O)c1cc(-c2ccc(/C=C3/SC(=S)N(CCc4ccccc4)C3=O)o2)ccc1Cl

>  <experimental-system>
Autotaxin (Homo sapiens)

>  <attribute-measured>
inhibition

>  <result>
20%

$$$$
>  <molecule>
CCOc1cc(/C=C2/S/C(=N/c3ccccc3)N(c3ccccc3)C2=O)ccc1OCc1ccccc1

>  <experimental-system>
Autotaxin (Homo sapiens)

>  <attribute-measured>
inhibition

>  <result>
10%

$$$$
>  <molecule>
COc1ccc(C2CC(=O)NC(SCC(=O)Nc3ccc(I)cc3)=C2C#N)cc1OC (centres undefined)

>  <experimental-system>
Autotaxin (Homo sapiens)

>  <attribute-measured>
inhibition

>  <result>
20%

$$$$
>  <molecule>
COc1cc(C2CC(=O)NC(SCC(=O)Nc3c(C)cc(C)cc3C)=C2C#N)ccc1OCc1ccccc1 (centres undefined)

>  <experimental-system>
Autotaxin (Homo sapiens)

>  <attribute-measured>
inhibition

>  <result>
30%

$$$$
>  <molecule>
O=C(NC(S)Nc1ccc2oc(-c3ccc(-c4ccccc4)cc3)nc2c1)c1ccc([N+](=O)[O-])cc1 (centres undefined)

>  <experimental-system>
Autotaxin (Homo sapiens)

>  <attribute-measured>
inhibition

>  <result>
10%

$$$$
>  <molecule>
COc1cc(/C=C2/SC(=S)N(Cc3ccccc3)C2=O)ccc1OC(=O)c1cccs1

>  <experimental-system>
Autotaxin (Homo sapiens)

>  <attribute-measured>
inhibition

>  <result>
0%

$$$$

====

# inhibition annotations
Target: Autotaxin (Homo sapiens, UniProt Q13822)
Experiment: Inhibition of C-terminal FLAG-tagged human recombinant autotaxin using synthetic substrate FS-3 at 10 uM measured every 2 mins by FRET assay relative to control

>  <compound>
Cc1cc(C)cc(CC(=O)N2CCN(c3ccc(C(=O)NC(C(N)=O)C(C)O)cn3)CC2)c1 (centres undefined)

>  <inhibition / %>
20

$$$$
>  <compound>
COc1cc(/C=N/NC(=O)c2cc(-c3ccc4ccccc4c3)n[nH]2)ccc1O

>  <inhibition / %>
10

$$$$
>  <compound>
CC(C)C(=O)NC(Cc1ccc(OCc2ccccc2)cc1)C(=O)NCCCN(C)c1ccccc1 (centres undefined)

>  <inhibition / %>
30

$$$$
>  <compound>
O=C(NCC(O)CO)c1ccc2c(c1)nc(CN1CCC(CCO)CC1)n2CCc1ccccc1 (centres undefined)

>  <inhibition / %>
10

$$$$
>  <compound>
Cc1ccc(NC(=O)CN2C(=O)N/C(=C/c3ccc(OCc4cccc([N+](=O)[O-])c4)cc3)C2=O)cc1

>  <inhibition / %>
0

$$$$
>  <compound>
O=C(NCCOCCO)c1ccc2c(c1)nc(CN1CCC(N3CCCC3)CC1)n2CC1CC1

>  <inhibition / %>
10

$$$$
>  <compound>
COc1cccc(C2CC(=O)NC(SCC(=O)Nc3ccccc3C)=C2C#N)c1OC (centres undefined)

>  <inhibition / %>
30

$$$$
>  <compound>
CC(O)C(NC(=O)c1cccnc1N1CCN(C(=O)CCC(=O)c2ccccc2)CC1)C(N)=O (centres undefined)

>  <inhibition / %>
10

$$$$
>  <compound>
CCCCCOc1ccc(/C=N/c2ccc(/N=C/c3ccc(OCCCCC)cc3)c(Cl)c2)cc1

>  <inhibition / %>
0

$$$$
